Target: human CD33 T173A (human, UniProt P20138 18-364)
Sequence (P20138 18-364 T173A limits assumed): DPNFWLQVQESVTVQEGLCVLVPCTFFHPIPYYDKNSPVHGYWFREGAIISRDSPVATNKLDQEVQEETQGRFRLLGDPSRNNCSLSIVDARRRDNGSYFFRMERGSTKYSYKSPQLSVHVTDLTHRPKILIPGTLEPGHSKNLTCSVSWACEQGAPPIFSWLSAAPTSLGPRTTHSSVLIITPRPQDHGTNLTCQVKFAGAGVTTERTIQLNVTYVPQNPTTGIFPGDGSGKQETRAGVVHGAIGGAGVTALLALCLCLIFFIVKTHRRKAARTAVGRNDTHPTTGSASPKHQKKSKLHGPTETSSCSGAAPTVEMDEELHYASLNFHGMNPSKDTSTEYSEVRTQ
Experiment: alanine scan, flow cytometry, HEK293-T;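 further: antibody binding to each alanine-substituted CD33 mutant expressed transiently in HEK293-T, read as fluorescence minus background, mean of duplicates, relative to wild-type CD33 set as 100%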
reported.endpoint: Mean % WT Binding (%)
Please reply with the bare figure in % and do not write the unit itself.

stdin: Using the record for Refmab #3 (antibody, V domains shown, In the alanine scan antibodies were used as IgG or Fab) VH: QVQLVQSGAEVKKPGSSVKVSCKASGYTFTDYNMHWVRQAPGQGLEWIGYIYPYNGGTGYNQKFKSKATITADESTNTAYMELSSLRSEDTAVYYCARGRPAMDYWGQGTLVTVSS VL: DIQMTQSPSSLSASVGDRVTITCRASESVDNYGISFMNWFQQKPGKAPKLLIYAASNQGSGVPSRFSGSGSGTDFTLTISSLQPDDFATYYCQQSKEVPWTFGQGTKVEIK , report its Mean % WT Binding.
stdout: 97
